# experimental-target: D1 (Homo sapiens, UniProt P21728)
# Sequence (P21728 whole entry): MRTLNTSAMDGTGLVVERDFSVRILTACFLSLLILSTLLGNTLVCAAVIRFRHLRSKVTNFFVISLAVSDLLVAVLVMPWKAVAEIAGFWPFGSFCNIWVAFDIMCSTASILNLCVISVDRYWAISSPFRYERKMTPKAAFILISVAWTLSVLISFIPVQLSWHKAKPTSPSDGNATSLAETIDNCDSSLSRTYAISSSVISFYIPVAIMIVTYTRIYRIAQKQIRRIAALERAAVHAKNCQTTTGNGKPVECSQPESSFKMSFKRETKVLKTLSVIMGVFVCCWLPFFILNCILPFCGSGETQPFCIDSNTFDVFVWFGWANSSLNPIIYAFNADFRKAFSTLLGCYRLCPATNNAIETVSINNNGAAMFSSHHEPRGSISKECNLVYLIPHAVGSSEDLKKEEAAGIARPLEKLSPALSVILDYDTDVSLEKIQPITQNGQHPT
# assay-comment: Human D1 receptor binding assay ([3H]-SCH23390 competition)
# cond: Human D1 Receptor Binding, Ki (nM), Geometric mean of 2-4 determinations, a: >=5 determinations, d: single determination
Structures can show the parent of a compound that is named as a salt.
endpoint-name: log10 Ki (log10 of the value in nM)
Heads up: the numbers are on a log10 scale; they represent Ki in nM.

stdin: Write down measured log10 Ki (D1 (Homo sapiens, UniProt P21728)) for this compound. Cc1cc(Nc2nccc3occc23)ccc1-c1c(C)ncnc1C [Example 132, formate salt]
stdout: 1.60

---
stdin: Write down measured log10 Ki (D1 (Homo sapiens, UniProt P21728)) for this compound. c1cc(-c2ccc(Oc3nccc4occc34)cc2)n2ccnc2c1
stdout: 1.99

stdin: Write down measured log10 Ki (D1 (Homo sapiens, UniProt P21728)) for this compound. Cc1ncnc(C)c1-c1ccc(Oc2nccc3occc23)cc1CF
stdout: 1.56

stdin: Write down measured log10 Ki (D1 (Homo sapiens, UniProt P21728)) for this compound. Cc1ncnc(C)c1-c1ccc(Oc2nccc3occc23)c2ccncc12
stdout: 2.68

stdin: Write down measured log10 Ki (D1 (Homo sapiens, UniProt P21728)) for this compound. Cc1cc(Oc2nccc3occc23)ccc1-c1c(C)nc(C)c(=O)n1C
stdout: 1.36

stdin: Write down measured log10 Ki (D1 (Homo sapiens, UniProt P21728)) for this compound. COc1cc(Oc2nccc3occc23)ccc1-c1cccc(=O)n1C
stdout: 1.36

stdin: Write down measured log10 Ki (D1 (Homo sapiens, UniProt P21728)) for this compound. Cc1cc(Oc2nccc3occc23)ccc1-c1cn[nH]c(=O)c1C
stdout: 1.36
